Tested on: NCI-H23 lung
TEST_DESCRIPTION: NCI tumour cell line growth inhibition, 48 h
Examples of molecules with documented TGI follow.
EXPERIMENTAL_ENDPOINT: TGI

CCN(CC)CCNC(=O)c1nn(-c2ccc(Cl)cc2)c2c1CCc1cc(OC)ccc1-2; 25.8 µM
COC(=O)C1C(O)C(C)C(O)OC1C(C)C(O)C(C)/C=C\C=C(/C)C(=O)Nc1c(C)c(OC(C)=O)c2c(c1O)C(=O)C(C)=C1OCOC(/C(C)=C/C(C)=O)=C12 (stereo unspecified); 27.8 µM
CC(C)(SCc1ccccc1)C(N)C(=O)O (stereo unspecified); > 100 µM
Oc1ccccc1C=Nc1ccccc1N=Cc1ccccc1O.[Cu+2]; 14 µM
Cc1nc2ccccc2c(=O)n1/N=C/c1ccc(N(C)C)cc1; > 100 µM
CC(C)N(/C(F)=N\C(=O)Nc1ccccc1C(F)(F)F)C(C)C; > 100 µM
C/C(=C1\C(=O)C(c2ccccc2)N(c2ccccc2)C1=O)c1ccc(Cl)cc1 (stereo unspecified); 31.9 µM
Cc1nc2ccccc2n1Cc1nnc2n1N=C(c1ccccc1)CS2; > 100 µM
COc1cc2c(cc1O)C(c1cc(O)c(O)c(OC)c1)C(O)(C(=O)O)C(CO)C2O (stereo unspecified); > 100 µM
NC(CO)C(=O)NCC(=O)O (stereo unspecified); > 100 µM
CCCCS(=O)CC(CO)NC(=O)/C=C/c1c(C)[nH]c(=O)[nH]c1=O (stereo unspecified); 44.6 µM
CC(=O)OC(=C(C#N)C#N)c1nccnc1C(C)=O; > 20 µM
CCN(CC)CC(=O)Nc1ccc2c(c1)C(=O)c1ccc(NC(=O)CN(CC)CC)cc1C2=O; > 100 µM
CSc1nc(N)c2c(n1)NC(c1ccccc1)C1CCc3ccccc3C1=N2 (stereo unspecified); > 100 µM
CCOC(=O)C1=C(C)NC(C)=C(C(=O)OCC)C1c1ccc(C)cc1; > 100 µM
Cc1cc(O)cc(C)c1/C=C/c1cncc(C(=O)OC(C)(C)C)c1; > 25 µM
C/C=C1\CCC2c3[nH]c4ccccc4c3CCN2C1 (stereo unspecified); > 100 µM
NC(=O)C1CCCN1C(=O)N(CCCl)N=O (stereo unspecified); > 100 µM
CCN1C(=O)N(CC)C2C1NN=c1s/c(=C\c3cccc([N+](=O)[O-])c3)c(=O)n12 (stereo unspecified); > 100 µM
CCOC(=O)c1nc2cc(C(F)(F)F)ccc2[n+]([O-])c1C; > 100 µM
Cc1cc(NS(=O)(=O)c2ccc(NC(=O)COC(=O)c3cccc4c(=O)c5ccccc5[nH]c34)cc2)no1; > 100 µM

###

Tested on: RXF 393 renal
TEST_DESCRIPTION: NCI tumour cell line growth inhibition, 48 h
Each record here notes measured TGI.
EXPERIMENTAL_ENDPOINT: TGI

Oc1c(CNCCNCc2cc(Cl)cc(Cc3ccccc3)c2O)cc(Cl)cc1Cc1ccccc1; 3.97 µM
Cn1c(C(C)(C)OC(=O)Oc2ccccc2)cnc1[N+](=O)[O-]; > 100 µM
Cc1cc(NS(=O)(=O)c2ccc(NC(=O)COC(=O)c3cccc4c(=O)c5ccccc5[nH]c34)cc2)no1; > 100 µM
CN(C)c1ccc(/C=N/NC(=O)c2cccc3ccccc23)c(Cl)c1; 10.8 µM
COc1cc2cc3c4c(cc(OC)c(OC)c4c2cc1OC)CCN3C(=O)CCC(=O)O; > 100 µM
CC(=O)OC1OC(c2ccoc2)C[C@@]12C1CCC3O[C@]3(C)[C@]1(C)C[C@H](OC(C)=O)[C@H]2C (some centres not stated); > 75 µM
COc1ccc(-c2nnc(Nc3nc(O)c(C4=c5cc(F)ccc5=NC4=O)s3)o2)cc1; > 100 µM
Cc1cc(C)c(C(=O)/C=C/c2ccccc2)c(C)c1; 34.5 µM
Cc1ccc(C(=O)N=Nc2c(O)[nH]c3ccc(Cl)cc23)cc1; > 50 µM
O=C1CCCN1CCCN=c1cc2n(-c3ccc(Cl)cc3)c3ccccc3nc-2cc1Nc1ccc(Cl)cc1; 11.3 µM
CCn1c(=O)c2c3cc(OC(C)=O)ccc3oc2c2ccc(OC(C)=O)cc21; > 100 µM
COc1ccc(-c2cc(-c3ccccc3)nc3c2CC(=O)Nc2ccccc2-3)cc1OC; > 46.3 µM
CCOC(=O)c1nc2cc(C(F)(F)F)ccc2[n+]([O-])c1C; > 100 µM
COc1cc2cc(C(=O)N3CC(CCl)c4c3cc(O)c3ccccc43)[nH]c2c(OC)c1OC (configuration not stated); < 0.005 µM
CN(C)CCNc1nc2ccccc2c2occc12; 86.2 µM
CC(C)(C)OC(=O)NCCCCCCCCCCn1c2c(c3ccccc3c1=O)C(=O)c1ccccc1-2; 37.4 µM
Nc1ccc(OCCCc2c(-c3ccccc3)nc(N)[nH]c2=O)cc1; > 100 µM
